- Method Notes: modulators of CD8 T cell-vesicle binding, confirmation, cherry-picked primary hits, two concentrations (AID 2810);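 note: lower values mean blocking of vesicle binding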
- Condition Info: 2C CD8+ T cell-vesicle binding, flow cytometry; CD8+/vesicle+ events; at 7.7 µM
Screen size: about 1,200 compounds; about 65 (5%) were called active. The sample holds actives, similar compounds and a random draw of the others, so the mix is not that of the screen.
Entries and their double positive events values follow.
Response body: numeric value in %, unit text excluded.

Sample records with double positive events:
>>> numeric_readout("NC(=S)N/N=C/c1ccccc1OCCSc1ccc(Cl)cc1")
7
>>> numeric_readout("O=C(/C(=N\\Nc1ccc(Br)cc1)Sc1nnnn1-c1ccccc1)c1ccccc1")
9.1
>>> numeric_readout("Cc1ccc(C(C)n2cc(C(=O)NCCN3CCN(C)CC3)nn2)cc1 (stereo unspecified)")
11.2
>>> numeric_readout("O=C(CN1C(=O)COc2ccc(S(=O)(=O)N3CCCC3)cc21)NC1CC1")
21.1
>>> numeric_readout("CCCCn1c(-c2ccccc2)nnc1-c1ccccc1")
37.8
>>> numeric_readout("COc1ccc(Cc2nc(-c3ccccn3)no2)cc1")
34.9

Name the recorded double positive events for CC1CCN(S(=O)(=O)c2csc(C(=O)Nc3ccccc3)c2)CC1 .
33.2

And what about the molecule O=C(NCCN1CCN(c2ccccc2)CC1)c1cccc(Br)c1 ?
24.2

And what about the molecule CCCc1nnc(NC(=O)CCC(=O)N2CCC(Cc3ccccc3)CC2)s1 ?
11.7

And what about the molecule Cc1nc2sc(C(c3ccccc3)N3CCN(c4ccccc4F)CC3)c(O)n2n1 (stereo unspecified) ?
38.2

And what about the molecule CC(=O)Nc1ccc(S(=O)(=O)NC2CCSc3ccccc32)cc1 (stereo unspecified) ?
13.6

###

- Method Notes: modulators of CD8 T cell-vesicle binding, confirmation, cherry-picked primary hits, two concentrations (AID 2810);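 note: lower values mean blocking of vesicle binding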;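 for percent response (vesicle binding): ratio of mean FL2 vesicle stain of CD8+ cells to that row's control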
- Condition Info: 2C CD8+ T cell-vesicle binding, flow cytometry; response; at 7.7 µM
Among all 1,200 compounds or so, about 65 (5%) were called active. The sample holds actives, similar compounds and a random draw of the others, so the mix is not that of the screen.
Property Measured: percent response (vesicle binding) (%)
Response body: numeric value in %, unit text excluded.

Sample records with percent response (vesicle binding):
>>> numeric_readout("CCOC(=O)C1(Cc2cccc(OC)c2)CCN(C/C=C/c2ccccc2)CC1")
269
>>> numeric_readout("O=C(NNC(=S)NC(=O)c1ccco1)c1ccc(F)cc1")
291
>>> numeric_readout("C[N+]1(C)CC2([N+](=O)[O-])CC=C(Oc3ccccc3)C([N+](=O)[O-])(C2)C1 (stereo not given)")
485
>>> numeric_readout("COc1ccc(Cl)cc1NS(=O)(=O)c1cccc(C(=O)NCC(C)(C)N2CCOCC2)c1")
710
>>> numeric_readout("Cc1ccc(C(=O)NCc2ccco2)o1")
368

Name the recorded percent response (vesicle binding) for CCCCN(C(=O)COC(=O)c1ccc(C=O)cc1)c1c(N)n(CCC)c(=O)[nH]c1=O .
335

And what about the molecule CC1=C/C(=C(\c2ccc(O)c(C)c2)c2ccccc2S(=O)(=O)O)C=CC1=O ?
142

And what about the molecule CN(C(=O)COC(=O)c1cccc(NS(=O)(=O)c2ccc(F)c(F)c2)c1)C1CCS(=O)(=O)C1 (stereo not given) ?
393

And what about the molecule O=C(NC(=S)NCc1ccco1)c1ccc(Br)cc1 ?
186

And what about the molecule NC(=O)C1CCN(c2nc(-c3cc4ccccc4o3)cs2)CC1 ?
459

###

- Method Notes: modulators of CD8 T cell-vesicle binding, confirmation, cherry-picked primary hits, two concentrations (AID 2810);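 note: lower values mean blocking of vesicle binding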;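 for percent response (vesicle binding): ratio of mean FL2 vesicle stain of CD8+ cells to that row's control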
- Condition Info: 2C CD8+ T cell-vesicle binding, flow cytometry; at 15.4 µM; stronger effect = lower value
Out of some 1,200 compounds screened, about 65 (5%) were called active. Shown is part of a subset that was picked to be rich in actives.
Property Measured: percent response (vesicle binding) (%)
Response body: numeric value in %, unit text excluded.

Sample records with percent response (vesicle binding):
>>> numeric_readout("CC(C)(C)NC(=O)COc1ccc(CNCc2ccccn2)cc1")
32.8
>>> numeric_readout("CC1=C/C(=C(\\c2ccc(O)c(C)c2)c2ccccc2S(=O)(=O)O)C=CC1=O")
14.6
>>> numeric_readout("COc1ccc(F)c(CN2CCC(n3nccc3NC(=O)C3CCOC3)CC2)c1 (stereo not drawn)")
235
>>> numeric_readout("C=CCN(c1ccc(Br)cc1C(=O)OC)S(C)(=O)=O")
35.1
>>> numeric_readout("Cc1ccc(C(=O)NC2CCCc3c2cnn3-c2ccc(F)cc2F)cn1 (stereo not drawn)")
329

Name the recorded percent response (vesicle binding) for CCCN(Cc1ccc(N(C)C)cc1)CC1CC1 .
413

And what about the compound COc1ccc(N(CC(=O)NCCC2=CCCCC2)S(=O)(=O)c2ccc(C)cc2)cc1OC ?
140

And what about the compound O=C(NCC(=O)N1CCN(C(=O)c2ccccc2)CC1)c1ccccc1 ?
148

###

- Method Notes: modulators of CD8 T cell-vesicle binding, confirmation, cherry-picked primary hits, two concentrations (AID 2810);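 note: lower values mean blocking of vesicle binding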
- Condition Info: 2C CD8+ T cell-vesicle binding, flow cytometry; at 15.4 µM
Out of some 1,200 compounds screened, about 65 (5%) were called active.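 The calls were made as follows: active = at either tested dose, response and 90th-percentile vesicle-stain brightness of CD8 cells under set limits and under 9% cells vesicle-bound; inactive = the rest.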 Many of the other results were omitted from the sample, so actives are more common in it than they were.
Allowed answers: t = active, f = inactive

Worked examples, 9 molecules total:
>>> category_label("CC1c2ccsc2CCN1C(=O)NC(=O)c1ccc(Cl)cc1 (stereo not given)")
"f"
>>> category_label("CN(Cc1ccccc1)C(=O)c1ccc(NC(=O)Cc2cccc(NC(=O)C3CCCN(C(=O)C4CCC4)C3)c2)cc1 (stereo not given)")
"t"
>>> category_label("C/C(=N\\Nc1nc2ccccc2[nH]1)c1cc2ccccc2o1")
"f"
>>> category_label("COc1ccc(NC(=O)C2CCC(C(C)(C)C)CC2)cc1S(=O)(=O)N1CCCCC1 (stereo not given)")
"f"
>>> category_label("O=C(Cc1cccc(NC(=O)C2CCCN(C(=O)C3CC3)C2)c1)Nc1cccc(C(=O)N2CCCC2)c1 (stereo not given)")
"f"
>>> category_label("COc1ccc(NS(=O)(=O)c2cc(NC(=O)C3CC3)ccc2N2CCCCC2)cc1")
"t"
>>> category_label("O=C(/C(=N\\Nc1ccc(Br)cc1)Sc1nnnn1-c1ccccc1)c1ccccc1")
"f"
>>> category_label("COc1ccc(NC(=S)N2CCN(c3ncccn3)CC2)c(OC)c1")
"f"
>>> category_label("O=C(NCCN1CCN(c2ccccc2)CC1)c1cccc(Br)c1")
"f"

Let's switch to this molecule now.
How was Cc1ccc(C(C)n2cc(C(=O)NCCN3CCN(C)CC3)nn2)cc1 (stereo not given) classified in this test?
t

###

- Method Notes: modulators of CD8 T cell-vesicle binding, confirmation, cherry-picked primary hits, two concentrations (AID 2810);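 note: lower values mean blocking of vesicle binding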
- Condition Info: 2C CD8+ T cell-vesicle binding, flow cytometry; CD8+/vesicle+ events; at 15.4 µM; stronger effect = lower value
The whole screen tested about 1,200 compounds, of which about 65 (5%) were called active. This excerpt belongs to a sample that is enriched for actives.
Entries and their double positive events values follow.
Response body: numeric value in %, unit text excluded.

>>> numeric_readout("COc1ccccc1CNC(=O)COc1ccc(C)cc1")
5.2
>>> numeric_readout("Cc1cccc(Nc2nc(-c3ccccn3)cs2)n1")
5.2
>>> numeric_readout("CC(NS(=O)(=O)c1ccc(Cl)c(Cl)c1)C(=O)OCC(=O)N1CCCCCC1 (stereo unspecified)")
12.9
>>> numeric_readout("O=C1CC(c2nc3ccccc3[nH]2)CN1Cc1ccccc1 (stereo unspecified)")
4.3
>>> numeric_readout("O=C(CCc1ccccc1)N1CCN(CCO)CC1")
14.4

Name the recorded double positive events for O=C(c1c[nH]c2ccccc12)N1CCN(Cc2ccccc2)CC1 .
10.6

And what about the compound Cc1ccccc1/C(N)=N/OC(=O)c1cccs1 ?
17.9

###

Entries and their percent response (vesicle binding) values follow.
- Method Notes: modulators of CD8 T cell-vesicle binding, confirmation, cherry-picked primary hits, two concentrations (AID 2810);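 note: lower values mean blocking of vesicle binding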;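 for percent response (vesicle binding): ratio of mean FL2 vesicle stain of CD8+ cells to that row's control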
- Condition Info: 2C CD8+ T cell-vesicle binding, flow cytometry; response; at 7.7 µM
About 65 (5%) of roughly 1,200 compounds were called active. The list comes from a sample in which actives are over-represented; it also holds close analogues and randomly drawn compounds.
Response body: numeric value in %, unit text excluded.

>>> numeric_readout("CCSc1ncnc2sc(C)c(C)c12")
354
>>> numeric_readout("CCSc1nnc(NC(=O)c2ccc(F)c(S(=O)(=O)N3CCOCC3)c2)s1")
209
>>> numeric_readout("COc1ccc(Cl)cc1NC(=O)/C=C/C(=O)O")
192
>>> numeric_readout("COc1ccc(/C(O)=C2/C(=O)C(=O)N(Cc3cccnc3)C2c2ccco2)cc1OC (centres undefined)")
360

Name the recorded percent response (vesicle binding) for CC(OC(=O)c1ccc2c(c1)C(=O)N(Cc1ccncc1)C2=O)C(=O)Nc1cccc(Cl)c1Cl (centres undefined) .
266

And what about the compound Cc1cc(C(=O)NCc2cc(C(=O)O)oc2C)c(C)o1 ?
224

And what about the compound Cc1ccccc1CS(=O)(=O)CCC(=O)N1CCN(c2ccc(N3CCOCC3)nn2)CC1 ?
160

And what about the compound CC(/C=C/c1ccc(C)o1)=C\C(=O)O ?
227

And what about the compound CN(C)S(=O)(=O)c1cccc(-n2sc3ccccc3c2=O)c1 ?
173

And what about the compound CCOC(=O)c1cnc2nc(C)nn2c1N ?
113

And what about the compound COc1ccc(NC(=O)COC(=O)c2cc(Cl)ccc2O)cc1S(=O)(=O)N1CCCCC1 ?
227

And what about the compound O=C(NCC1CCCCC1)c1ccc(Cl)c(S(=O)(=O)N2CCOCC2)c1 ?
135
